Where these numbers come from: PubChem BioAssay

method-summary: DUSP6 inhibitors restoring Erk phosphorylation by chemical complementation, primary imaging in DUSP6-transfected HeLa (AID 609)
conditions-used: HeLa MKP-3 transfected, phospho-Erk imaging KS statistic; measured here: nuclear pErk red intensity z-score; at 10 µM; stronger effect = higher value; cells stimulated with TPA for 15 min
z-score listing for selected compounds.

{"columns": ["compound", "z-score"],
 "data": [
  ["CCOc1cc(CN2CCOCC2)cc(C(C)=O)c1", -0.466],
  ["Cc1c(NS(=O)(=O)c2cccc3nsnc23)c(=O)n(-c2ccccc2)n1C", -0.221],
  ["Cc1cccc2c1NC(C)CC2C (stereo not drawn)", -0.589],
  ["O=[N+]([O-])c1cccc2cn[nH]c12", -1.46],
  ["CCN(CC)CCCN1C(=O)C(=O)/C(=C(/O)c2ccccc2)C1c1ccccn1 (stereo not drawn)", -0.0355],
  ["O=C(OCCN1CCOCC1)c1ccc(OCCN2CCOCC2)cc1", 0.881],
  ["CC1(C)SC2[C@H](NC(=O)C(NC(=O)N3CCNC3=O)c3ccccc3)C(=O)N2C1C(=O)O (stereo partly drawn)", -0.885],
  ["Cc1ccc2nc(C(F)(F)F)c(C#N)c(N)c2c1", -0.0348],
  ["O=C(NCCO)c1cccc2c1C(=O)c1ccccc1-2", 1.88],
  ["CCOC(=O)[C@H](CCc1ccccc1)N[C@@H](C)C(=O)N1CCC[C@H]1C(=O)O", -0.0475],
  ["CC(C)Cc1nc2n[nH]c(N)c2c2c1CCC2", -0.647],
  ["CC1(C)Cc2c(C#N)c(OCC(=O)c3ccc(Cl)cc3)nc(-c3ccoc3)c2CO1", 0.479],
  ["O=C(NO)c1ccccc1O", -1.2],
  ["CCC(=O)N[C@@H]1CC(C(C)(C)NC(=O)CC)CC=C1C (stereo partly drawn)", -0.616],
  ["c1csc(-c2nn3c(C4CCCCC4)nnc3s2)c1", 2.62],
  ["COc1ccc(CCCNC(=O)CC#N)cc1OC", -0.241],
  ["CCCCCC(=O)O[C@]1(C(C)=O)CC[C@H]2[C@@H]3CCC4=CC(=O)CC[C@]4(C)[C@H]3CC[C@@]21C", 1.24],
  ["CCN=C1SC(C(=O)Nc2ccc(Cl)c(Cl)c2)CC(=O)N1CC (stereo not drawn)", -1.57],
  ["COCCCNC(=O)c1c(N)n(/N=C/c2cccs2)c2nc3ccccc3nc12", -0.0865],
  ["COc1ccc(C(=O)N/C(N)=N/c2nc3ccccc3o2)cc1", 0.889],
  ["C[C@]12CC[C@@H]3c4ccc(O[C@@H]5O[C@H](C(=O)O)[C@@H](O)[C@H](O)[C@H]5O)cc4CC[C@H]3[C@@H]1C[C@@H](O)[C@@H]2O", -0.309],
  ["CCOC(=O)CCc1c(C)c(C#N)c2[nH]c3ccccc3n2c1=O", -0.0374],
  ["CNCCCN1c2ccccc2CCc2ccccc21", 2.91]
]}
